- study_system: hOx1R (Homo sapiens (Human))
- assay_overview: Radioligand binding assay, [3H]-SB649868, hOx1R
- test_context: radioligand [3H]-SB649868, competition
Give log10(Kd) for every item shown.
Please keep in mind that the values are log10 of Kd expressed in nM.

smiles_representation: O=C1N(Cc2c[nH]c3ccccc23)CCCC12CCN(c1nc3ccccc3[nH]1)CC2
recorded_endpoint: log10(Kd)
meas_value: 2.97
//
smiles_representation: O=C1N(Cc2ccccc2-n2nccn2)CCCC12CCN(c1cnc3ccccc3n1)CC2
recorded_endpoint: log10(Kd)
meas_value: 3.51

Give one value of log10(Kd) per listed molecule.
1. Cc1nc(-c2cccc(CN3CCCC4(CCN(c5cnc6ccccc6n5)CC4)C3=O)c2)no1
2. Cn1cc(CN2C(=O)CCCC23CCN(c2cnc4ccccc4n2)CC3)c2cccnc21
3. O=C1N(Cc2cccc(-n3ccnn3)c2)CCCC12CCN(c1cnc3ccccc3n1)CC2
4. O=C1N(Cc2ccccc2-c2ccco2)CCCC12CCN(c1cnc3ccccc3n1)CC2
5. O=C1N(Cc2cccc(-c3cnccn3)c2)CCCC12CCN(c1cnc3ccccc3n1)CC2
6. O=C1N(Cc2cccc(-n3cccn3)c2)CCCC12CCN(c1cnc3ccccc3n1)CC2
7. O=C1N(Cc2n[nH]c3ccccc23)CCCC12CCN(c1cnc3ccccc3n1)CC2

OUT:
[2.99, 2.49, 3.11, 3.32, 3.27, 2.86, 2.02]

* * *

- study_system: hOx2R (Homo sapiens (Human))
- Sequence (O43614 whole entry): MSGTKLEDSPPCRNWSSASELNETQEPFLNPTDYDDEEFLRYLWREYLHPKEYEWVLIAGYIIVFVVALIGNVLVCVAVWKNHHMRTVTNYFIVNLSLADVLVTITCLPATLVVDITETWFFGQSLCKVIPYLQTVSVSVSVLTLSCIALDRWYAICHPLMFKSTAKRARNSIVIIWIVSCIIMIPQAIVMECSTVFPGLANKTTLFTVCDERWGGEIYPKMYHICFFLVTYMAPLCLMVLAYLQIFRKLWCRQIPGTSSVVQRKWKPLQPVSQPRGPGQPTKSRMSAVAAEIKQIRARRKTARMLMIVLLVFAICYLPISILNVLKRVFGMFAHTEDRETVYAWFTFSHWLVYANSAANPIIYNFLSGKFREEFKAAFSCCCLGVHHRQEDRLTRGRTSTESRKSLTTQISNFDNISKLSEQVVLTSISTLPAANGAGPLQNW
- assay_overview: Calcium accumulation in cells (FLIPR), hOx2R
- test_context: inhibition of orexin A induced calcium accumulation, Cheng and Prusoff correction
recorded_endpoint: Ki (nM)
Give bare numbers, in nM.

smiles_representation: O=C1N(Cc2ccccc2C(F)(F)F)CCCC12CCN(c1cnc3ccccc3n1)CC2
Ki (nM): 280
--
smiles_representation: Cn1nc2ccccc2c1CN1CCCC2(CCN(c3cnc4ccccc4n3)CC2)C1=O
Ki (nM): 559

Provide reported Ki for each item, in the same order as listed.
1. O=C1N(Cc2c[nH]c3ccccc23)CCCC12CCN(c1nccc(-c3ccccc3)n1)CC2
2. Cc1nnc(-c2ccc(CN3CCCC4(CCN(c5cnc6ccccc6n5)CC4)C3=O)cc2)o1
3. Cc1cccc(CN2CCCC3(CCN(c4cnc5ccccc5n4)CC3)C2=O)c1C
4. Cc1ccc(C)c(CN2C(=O)CCCC23CCN(c2cnc4ccccc4n2)CC3)c1

OUT:
[115, 1240, 247, 16]

* * *

- study_system: hOx2R (Homo sapiens (Human))
- assay_overview: Calcium accumulation in cells (FLIPR), hOx2R
- test_context: inhibition of orexin A induced calcium accumulation, Cheng and Prusoff correction
pKi: −log10 of the molar value.
Record Yes whenever pKi is at 7 or higher; record No when lower.

smiles_representation: O=C1N(Cc2cc3ccccc3[nH]2)CCCC12CCN(c1cnc3ccccc3n1)CC2
class_label: No
--
smiles_representation: O=C1N(Cc2cccc(-c3ccccc3)c2)CCCC12CCN(c1cnc3ccccc3n1)CC2
class_label: Yes
--
smiles_representation: O=C1N(Cc2cc(-n3cccn3)ccn2)CCCC12CCN(c1cnc3ccccc3n1)CC2
class_label: No

IN: Test whether the compound CN1CCc2c(CN3CCCC4(CCN(c5cnc6ccccc6n5)CC4)C3=O)cccc21 records pKi of 7 or higher.
OUT: No

* * *

- study_system: hOx1R (Homo sapiens (Human), UniProt O43613)
- Sequence (O43613 whole entry): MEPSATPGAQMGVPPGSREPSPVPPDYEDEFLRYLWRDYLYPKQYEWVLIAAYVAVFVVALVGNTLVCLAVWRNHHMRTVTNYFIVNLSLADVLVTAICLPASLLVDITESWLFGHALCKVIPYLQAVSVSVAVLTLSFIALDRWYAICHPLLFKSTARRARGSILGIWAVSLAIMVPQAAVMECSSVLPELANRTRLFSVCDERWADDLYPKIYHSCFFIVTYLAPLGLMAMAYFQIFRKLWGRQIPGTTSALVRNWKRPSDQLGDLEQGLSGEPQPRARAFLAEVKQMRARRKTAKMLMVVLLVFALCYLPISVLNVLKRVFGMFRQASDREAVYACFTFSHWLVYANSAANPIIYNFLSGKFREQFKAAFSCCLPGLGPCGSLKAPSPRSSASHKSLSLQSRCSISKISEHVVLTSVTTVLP
- assay_overview: Calcium accumulation in cells (FLIPR), hOx1R
- Format: cell-based
- test_context: measured at a concentration of 10 μM of compound
Assign inhibition at 10 µM to each entry below.

These solved cases illustrate the format of a correct answer.
compound: Cc1cc(C)nc(CN2CCCC3(CCN(c4cnc5ccccc5n4)CC3)C2=O)c1 [Example 106]
inhibition at 10 µM: 35%
//
compound: O=C1N(Cc2ccc3nonc3c2)CCCC12CCN(c1cnc3ccccc3n1)CC2 [Example 53]
inhibition at 10 µM: 37%
//
compound: O=C1N(Cc2ccncc2)CCCC12CCN(c1cnc3ccccc3n1)CC2 [Example 67]
inhibition at 10 µM: 11%
//
compound: Cc1cc(C)n(-c2ccccc2CN2CCCC3(CCN(c4cnc5ccccc5n4)CC3)C2=O)n1 [Example 115]
inhibition at 10 µM: 57%
//
compound: O=C1N(Cc2nccn2Cc2ccccc2)CCCC12CCN(c1cnc3ccccc3n1)CC2 [Example 86]
inhibition at 10 µM: 47%

Kindly give each listed record's inhibition at 10 µM.
1. COc1ccc2[nH]c(N3CCC4(CCCN(Cc5c[nH]c6ccccc56)C4=O)CC3)nc2c1 [Example 159]
2. O=C1N(Cc2c[nH]c3ccccc23)CCCC12CCN(c1cnc3nccnc3c1)CC2 [Example 146]

OUT:
["24%", "29%"]

Need inhibition at 10 µM for each of these compounds.
1. O=C1N(Cc2c[nH]c3ccccc23)CCCC12CCN(c1ccc(-c3nccs3)cn1)CC2 [Example 161]
2. Cn1nccc1-c1ccccc1CN1CCCC2(CCN(c3cnc4ccccc4n3)CC2)C1=O [Example 148]
3. O=C1N(Cc2ccccc2-n2cccn2)CCCC12CCN(c1cnc3ccccc3n1)CC2 [Example 85]
4. O=C1N(Cc2noc(C3CCC3)n2)CCCC12CCN(c1cnc3ccccc3n1)CC2 [Example 89]
5. Cc1ccc2[nH]c(N3CCC4(CCCN(Cc5c[nH]c6ccccc56)C4=O)CC3)nc2c1 [Example 163]
6. O=C1N(Cc2nnc3ccccn23)CCCC12CCN(c1cnc3ccccc3n1)CC2 [Example 75]
7. Cc1nn(-c2ccccc2)nc1CN1CCCC2(CCN(c3cnc4ccccc4n3)CC2)C1=O [Example 175]

OUT:
1: 40%; 2: 30%; 3: 15%; 4: 29%; 5: 23%; 6: 22%; 7: < 10%

Provide inhibition at 10 µM values for the following items, in order.
1. O=C1N(Cc2cccc(N3CCOCC3)c2)CCCC12CCN(c1cnc3ccccc3n1)CC2 [Example 59]
2. O=C1N(Cc2c[nH]c3ccccc23)CCCC12CCN(c1nc(-c3ccc(F)cc3)cs1)CC2 [Example 172]
3. Cc1noc(C)c1CN1CCCC2(CCN(c3cnc4ccccc4n3)CC2)C1=O [Example 37]

OUT:
1. 12%
2. 14%
3. 8%

* * *

Please go through the items and note down their pKd.
- study_system: hOx2R (Homo sapiens (Human))
- assay_overview: Radioligand binding assay, [3H]-SB649868, hOx2R
- test_context: radioligand [3H]-SB649868, competition
Numbers only, as −log10 of the molar value.

Below: 7 molecules and their reported pKd.
molecule: O=C1N(Cc2cccc(-n3cccn3)c2)CCCC12CCN(c1cnc3ccccc3n1)CC2 [Example 60]
study_system: hOx2R (Homo sapiens (Human))
pKd: 6.72

molecule: O=C1N(Cc2cccc(-n3ccnn3)c2)CCCC12CCN(c1cnc3ccccc3n1)CC2 [Example 46]
study_system: hOx2R (Homo sapiens (Human))
pKd: 6.33

molecule: O=C1N(Cc2n[nH]c3ccccc23)CCCC12CCN(c1cnc3ccccc3n1)CC2 [Example 129]
study_system: hOx2R (Homo sapiens (Human))
pKd: 7.60

molecule: O=C1N(Cc2cccc(-n3cccn3)n2)CCCC12CCN(c1cnc3ccccc3n1)CC2 [Example 83]
study_system: hOx2R (Homo sapiens (Human))
pKd: 6.44

molecule: Cc1nc(CN2CCCC3(CCN(c4cnc5ccccc5n4)CC3)C2=O)c(-c2cccc(F)c2)s1 [Example 73]
study_system: hOx2R (Homo sapiens (Human))
pKd: 6.66

molecule: Cc1noc(-c2ccccc2CN2CCCC3(CCN(c4cnc5ccccc5n4)CC3)C2=O)n1 [Example 39]
study_system: hOx2R (Homo sapiens (Human))
pKd: 6.61

molecule: COc1cccc(-n2cncc2CN2CCCC3(CCN(c4cnc5ccccc5n4)CC3)C2=O)c1 [Example 111]
study_system: hOx2R (Homo sapiens (Human))
pKd: 6.25

# context switch: different molecule, same pKd
IN: Any idea what pKd was measured for O=C1N(Cc2c[nH]c3ccccc23)CCCC12CCN(c1ccc3ccccc3n1)CC2 [Example 160] ?
OUT: 6.95

* * *

- study_system: hOx1R (Homo sapiens (Human), UniProt O43613)
- assay_overview: Calcium accumulation in cells (FLIPR), hOx1R
- test_context: inhibition of orexin A induced calcium accumulation, Cheng and Prusoff correction
recorded_endpoint: pKi
Numbers only, as −log10 of the molar value.

smiles_representation: Cn1nc(CN2CCCC3(CCN(c4cnc5ccccc5n4)CC3)C2=O)c2ccccc21
pKi: 6.03

Give pKi for all compounds that follow.
1. Cn1ncc2cccc(CN3CCCC4(CCN(c5cnc6ccccc6n5)CC4)C3=O)c21
2. O=C1N(Cc2cc(-n3cccn3)ccn2)CCCC12CCN(c1cnc3ccccc3n1)CC2
3. O=C1N(Cc2noc3ccccc23)CCCC12CCN(c1cnc3ccccc3n1)CC2
4. Cn1ccc2c(CN3C(=O)CCCC34CCN(c3cnc5ccccc5n3)CC4)cccc21
5. O=C1N(Cc2cccc(C(F)(F)F)c2)CCCC12CCN(c1cnc3ccccc3n1)CC2

OUT:
1: 6.14; 2: 5.63; 3: 6.23; 4: 7.19; 5: 6.02

Quick batch: pKi for everything below.
1. O=C1N(Cc2ccc(-c3ncccn3)cc2)CCCC12CCN(c1cnc3ccccc3n1)CC2
2. O=C1N(Cc2cccc(N3CCCC3)n2)CCCC12CCN(c1cnc3ccccc3n1)CC2

OUT:
1: 5.55; 2: 5.60
